The reader will find reported koff values listed item by item below.
Biological target: T1, SARS-CoV-2 spike protein (SARS-CoV-2, UniProt P0DTC2 14-1208)
T1 construct: also called SARS-CoV-2 S protein; antigen of interest
Experiment: HT-SPR, Carterra LSA; mAb coupled to chip, antigen injected; 1:1 fit
Measured metric: koff (s⁻¹)

{"columns": ["Binder", "Unit string", "Sign qualifier", "Reported measurement"],
 "data": [
  ["antibody 520 (antibody, V domains shown, also called mAb 520) VH: QVQLVESGGGVVQPGRSLRLSCAASGFTFSSYAMHWGRQAPGKGLEWVAVISYDGSNKYYADSVKGRFTISRDNSKNTLYLQMNSLRAEDTAVYYCARDGGSGWLLVGNWFDPWGQGTLVTVSS VL: QSALTQPASVSGSPGQSITISCTGTSSDVGGYNYVSWYQQHPGKAPKLMIYDVSNRPSGVSNRFSGSKSGNTASLTISGLQAEDEADYYCSSYTSSITLYVFGTGTKVTVL", "s⁻¹", "≤", "1e-05"],
  ["antibody 513 (antibody, V domains shown) VH: QVQLVESGGGVVQPGRSLRLSCAASGFTFSSYAMHWVRQAPGKGLEWVAVISYDGSNKYYADSVKGRFTISRDNSKNTLYLQMNSLRAEDTAVYYCARAGSGSYYNWFDPWGQGTLVTVSS VL: QSALTQPASVSGSPGQSITISCTGTSSDVGGYNYVSWYQQHPGKAPKLMIYEVSNRPSGVSNRFSGSKSGNTASLTISGLQAEDEADYYCSSYTSSSTPYVFGTGTKVTVL", "s⁻¹", "=", "2.62e-05"]
]}

The values you see were collected from patent US20210292393A1.
